Target: D(2) dopamine receptor (Bos taurus, UniProt P20288)
Sequence (P20288 whole entry): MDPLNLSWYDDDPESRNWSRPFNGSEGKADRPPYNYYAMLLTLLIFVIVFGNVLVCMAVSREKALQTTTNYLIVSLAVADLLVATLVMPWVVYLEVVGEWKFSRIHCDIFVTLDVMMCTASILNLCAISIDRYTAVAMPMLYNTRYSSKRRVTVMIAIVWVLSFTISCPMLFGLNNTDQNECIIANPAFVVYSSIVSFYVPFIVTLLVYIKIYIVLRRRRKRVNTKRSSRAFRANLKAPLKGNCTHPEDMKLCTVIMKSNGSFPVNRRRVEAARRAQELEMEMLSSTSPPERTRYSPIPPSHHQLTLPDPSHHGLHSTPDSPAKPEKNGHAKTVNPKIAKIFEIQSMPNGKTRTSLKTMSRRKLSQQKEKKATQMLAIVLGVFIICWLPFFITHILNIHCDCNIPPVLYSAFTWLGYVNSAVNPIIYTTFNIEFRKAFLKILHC
Experiment: Binding affinity towards D2-dopaminergic receptor using [3H]NMSP as radioligand
Recorded endpoint: Ki (nM)
Give just the numeric value; nM need not be written.

**Query** Can you look up the measured Ki of COc1ccccc1N1CCN(CCCCNC(=O)C23C[C@H]4C[C@@H](C2)C[C@@H](C3)C4)CC1 for me?
**Result** 2.7

====

Target: 5-hydroxytryptamine receptor 1B (Rattus norvegicus, UniProt P28564)
Sequence (P28564 whole entry): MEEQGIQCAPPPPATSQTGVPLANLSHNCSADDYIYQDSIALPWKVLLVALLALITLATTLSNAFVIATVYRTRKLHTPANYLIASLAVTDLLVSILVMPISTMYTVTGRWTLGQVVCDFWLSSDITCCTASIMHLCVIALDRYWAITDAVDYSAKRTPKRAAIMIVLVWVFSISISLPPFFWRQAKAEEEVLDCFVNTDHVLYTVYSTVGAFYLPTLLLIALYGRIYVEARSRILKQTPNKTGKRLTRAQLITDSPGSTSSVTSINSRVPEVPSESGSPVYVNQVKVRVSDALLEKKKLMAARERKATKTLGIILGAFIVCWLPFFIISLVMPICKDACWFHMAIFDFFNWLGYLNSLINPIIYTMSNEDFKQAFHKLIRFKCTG
Recorded endpoint: pKi
Conceptually, pKi converts a concentration in mol/L into minus its log10.

**Query** So what pKi did COc1ccccc1N1CCN(CCCCNC(=O)C23C[C@H]4C[C@@H](C2)C[C@@H](C3)C4)CC1 get with 5-hydroxytryptamine receptor 1B (Rattus norvegicus, UniProt P28564)?
**Result** 6.05
